# TGI values compiled below
Test system: MOLT-4 leukemia
Assay: NCI tumour cell line growth inhibition, 48 h

Consider the worked cases shown below.
Compound: CCCCC#CC1=C(Br)C(=O)OC1
Reported: > 100 µM

Compound: C(=NCCN1CCOCC1)=NC1CCCCC1
Reported: > 100 µM

Compound: NC(N)=NS(=O)(=O)c1ccc(NNc2c3ccccc3nc3c(C(=O)Nc4ccc(S(=O)(=O)Nc5ncccn5)cc4)cccc23)cc1
Reported: > 100 µM

Challenge: // lookup TGI for O=c1oc2ccc3ccccc3c2cc1-c1nc2ccccc2s1
Response given: > 21.6 µM

Challenge: // lookup TGI for Nc1c(C(=O)O)nnc2ccc(Cl)cc12
Response given: > 100 µM

Challenge: // lookup TGI for C=CCc1cccc2cc(C(=O)NCc3ccccc3)c(=N)oc12
Response given: > 100 µM

Challenge: // lookup TGI for Nc1ccc([N+](=O)[O-])cc1N=C/C=C/c1ccccc1
Response given: > 100 µM

Challenge: // lookup TGI for COc1ccccc1/C=N\N/C(N)=N\N=C\c1ccccc1OC
Response given: 3.9 µM

Challenge: // lookup TGI for C=CCc1c(O)c2c(c3oc(=O)cc(C)c13)CC(C)O2 (stereo unspecified)
Response given: > 100 µM

Challenge: // lookup TGI for CC(=O)c1ccccc1NP(=O)(c1ccccc1)c1ccccc1
Response given: > 100 µM

Challenge: // lookup TGI for NC(CCCCCP(=O)(c1ccccc1)C1C=CC=CC1)C(=O)O (stereo unspecified)
Response given: > 100 µM

The origin of these recorded values is PubChem BioAssay (NCI).
